# System: SEM cells
# Protocol details: cell viability relative to DMSO control; higher = less cytotoxic
# Protocol conditions: RPMI 5 mM glucose + 10% dialyzed FBS; 48 h; 0.19 µM
Readout: cell viability (%)
API: value field is a number in %; no unit string.

Please review the following examples before continuing.
For CCOC(=O)O[C@]1(C(=O)OCCl)CC[C@H]2[C@@H]3CCC4=CC(=O)C=C[C@]4(C)[C@H]3[C@@H](O)C[C@@]21C the molecule record lists cell viability as 94.8

For COC(=O)Nc1nc2ccc([S+]([O-])c3ccccc3)cc2[nH]1 (configuration not stated) the molecule record lists cell viability as 122

For COc1cc2c(Nc3ccc(Cl)c(Cl)c3F)ncnc2cc1OC[C@@H]1C[C@@H]2CN(C)C[C@@H]2C1 the molecule record lists cell viability as 91.1

For C[N+]1(C)[C@@H]2CC(OC(=O)C(O)(c3cccs3)c3cccs3)C[C@H]1[C@@H]1O[C@@H]12 (some centres not stated) the molecule record lists cell viability as 119

For CC1=C(/C=C/C(C)=C/C=C/C(C)=C/C(=O)O)C(C)(C)CCC1 the molecule record lists cell viability as 120

***
For Nc1ccn([C@H]2CS[C@@H](CO)O2)c(=O)n1 the molecule record lists cell viability as 138

For CC(C)(C)OC(=O)Nc1ccc(-c2cc(C(=O)NCCCCCCC(=O)NO)no2)cc1 the molecule record lists cell viability as 90.7

For C1CN\2C[C@@H](\N=C2S1)C3=CC=CC=C3 the molecule record lists cell viability as 116

For CC(C)c1c(C(=O)Nc2ccccc2)c(-c2ccccc2)c(-c2ccc(F)cc2)n1CC[C@@H](O)C[C@@H](O)CC(=O)[O-] the molecule record lists cell viability as 68.5

For CC(C)n1cnc2c(NCCc3ccc(O)cc3)nc(-c3csc4ccccc34)nc21 the molecule record lists cell viability as 127

* * *

# Test system: SEM cells
# Protocol details: cell viability relative to DMSO control; higher = less cytotoxic
# Protocol conditions: HPLM + 10% dialyzed FBS; 48 h; 0.0211 µM
Listed compounds paired with reported cell viability
API: value field is a number in %; no unit string.

For CCOC(=O)O[C@]1(C(=O)OCCl)CC[C@H]2[C@@H]3CCC4=CC(=O)C=C[C@]4(C)[C@H]3[C@@H](O)C[C@@]21C the compound record lists cell viability as 102

* * *

# Test system: SEM cells
# Protocol details: cell viability relative to DMSO control; higher = less cytotoxic
# Protocol conditions: HPLM + 10% dialyzed FBS; 48 h; 15.4 µM
Threshold 70%. cell viability below it: YES. cell viability at it or above: NO.

As a guide, the following entries are already answered.
Lab note: confirm whether the reported cell viability for this molecule is below 70%, equality not counting. molecule: C1COC(NC(C2CC2)C2CC2)=N1
NO

Lab note: confirm whether the reported cell viability for this molecule is below 70%, equality not counting. molecule: CC(C)CC(N(C)C)C1(c2ccc(Cl)cc2)CCC1 (stereo not given)
YES

Switching to the query record.
Lab note: confirm whether the reported cell viability for this molecule is below 70%, equality not counting. molecule: O=C1CCCC(=O)C1C(=O)c1ccc(C(F)(F)F)cc1[N+](=O)[O-]
NO

* * *

# System: NOMO1
# Protocol details: cell viability relative to DMSO control; higher = less cytotoxic
# Protocol conditions: RPMI 5 mM glucose + 10% dialyzed FBS; 48 h; 5.12 µM
Readout: cell viability (%)
API: value field is a number in %; no unit string.

For O=C(NCc1ccccc1)c1csc(Nc2ccncn2)n1 the compound record lists cell viability as 33.9

For CC(C)c1c(C(=O)Nc2ccccc2)c(-c2ccccc2)c(-c2ccc(F)cc2)n1CC[C@@H](O)C[C@@H](O)CC(=O)[O-] the compound record lists cell viability as 73.9

For COc1cc2ncnc(Nc3cccc(Cl)c3)c2cc1OC the compound record lists cell viability as 45.8

***
For Cc1c(C(=O)c2cccc3ccccc23)c2cccc3c2n1[C@H](CN1CCOCC1)CO3 the compound record lists cell viability as 87.5

For CCOC(=O)O[C@]1(C(=O)OCCl)CC[C@H]2[C@@H]3CCC4=CC(=O)C=C[C@]4(C)[C@H]3[C@@H](O)C[C@@]21C the compound record lists cell viability as 75.8

For O=C1N\C=N/C2=C1C=N[NH]2 the compound record lists cell viability as 89.1

For C[C@H](NCc1ccc(OCc2cccc(F)c2)cc1)C(N)=O the compound record lists cell viability as 99.7

For COc1ccc(C2(C#N)CCC(C(=O)O)CC2)cc1OC1CCCC1 (stereo unspecified) the compound record lists cell viability as 101
